Entry source: patent US20210246166A1

rat MASP1 IC50 values for the binders below.
- measured target: T1, recombinant rat MASP1 active protease (amino acids 302-704, C-terminal His Tag) (rat, UniProt Q8CHN8 302-704)
- T1 sequence: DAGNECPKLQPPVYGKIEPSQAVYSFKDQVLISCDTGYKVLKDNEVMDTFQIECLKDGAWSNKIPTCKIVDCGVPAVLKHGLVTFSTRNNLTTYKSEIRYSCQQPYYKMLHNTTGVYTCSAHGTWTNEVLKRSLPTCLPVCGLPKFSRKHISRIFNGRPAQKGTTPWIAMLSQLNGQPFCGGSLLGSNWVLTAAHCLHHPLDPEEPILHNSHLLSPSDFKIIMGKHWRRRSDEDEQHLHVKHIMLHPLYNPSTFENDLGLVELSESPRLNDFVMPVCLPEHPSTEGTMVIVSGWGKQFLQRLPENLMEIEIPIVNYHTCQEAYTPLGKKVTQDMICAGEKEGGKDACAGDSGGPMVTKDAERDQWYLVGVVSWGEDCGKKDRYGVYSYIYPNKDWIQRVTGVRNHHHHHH
- method summary: cell-based or functional assay
Bridge positions count the residues as written; N and C are the ends. Square brackets hold non-standard residues; d marks the D form. Ends that are not written are not given here. Oic = O=C(O)[C@@H]1C[C@@H]2CCCC[C@@H]2N1; tBuAla = CC(C)(C)C[C@H](N)C(=O)O; Pen = CC(C)(S)[C@H](N)C(=O)O; Sar = CNCC(=O)O
Response body: numeric value in µM, unit text excluded.

binder	rat MASP1 IC50 (µM)
AICSRS[tBuAla]PPICIDD-OH (disulfide 3-11; N-terminus assumed; SMILES CC[C@H](C)[C@H](NC(=O)[C@H](C)N)C(=O)N[C@H]1CSSC[C@@H](C(=O)N[C@H](C(=O)N[C@@H](CC(=O)O)C(=O)N[C@@H](CC(=O)O)C(=O)O)[C@@H](C)CC)NC(=O)[C@H]([C@@H](C)CC)NC(=O)[C@@H]2CCCN2C(=O)[C@@H]2CCCN2C(=O)[C@H](CC(C)(C)C)NC(=O)[C@H](CO)NC(=O)[C@H](CCCNC(=N)N)NC(=O)[C@H](CO)NC1=O) [Example 210: AIC+SRS-((tBu)A)-PPIC+IDD-OH]	0.019

Report rat MASP1 IC50 for [Sar]ICSRSLP[Oic]I[Pen]I[5‑Azaspiro(2.4)heptane‑1‑carboxylic acid]-OH (disulfide 3-11) [Example 194: ((N-Me)G)-IC+SRSLP-(Oic)-I-(Pen)+I-((5-Azaspiro[2.4]heptane-1-carboxylic acid)-OH] please.
0.07
